Test system: ENR+CD organoids (ISC to Paneth cell differentiation)
Assay: Primary screen: basal (non-stimulated) lysozyme secretion LYZ.NS, 2.5-D 384-well ENR+CD organoid differentiation
Type: cell-based, mouse
Details: primary screen, dose 10.00 uM
Description: High-throughput screening.
Items are presented alongside their recorded Z.LYZ.NS (standard z score).

Here is how some compounds turned out for Z.LYZ.NS (standard z score).
COc1cc(N2CCC(N)CC2)ccc1Nc1ncc(Cl)c(-c2c[nH]c3ccccc23)n1 [AZD3463]
−1.820
NC(=O)c1cccc(-c2cccc(OC(=O)NC3CCCCC3)c2)c1 [URB597]
−0.123
O=C(NCc1ccccc1)c1csc(Nc2ccncn2)n1 [Thiazovivin]
−0.605
CC(C)N(CC[C@H](c1ccccc1)c1cc(CO)ccc1O)C(C)C [4CE°8C]
−0.827

Enquiry: Look up ENR+CD organoids (ISC to Paneth cell differentiation) data: Z.LYZ.NS (standard z score) of CC[C@@H]1C(=O)N(C)c2cnc(Nc3ccc(C(=O)NC4CCN(C)CC4)cc3OC)nc2N1C1CCCC1 [BI 2536] , then report it.
Return: −0.953

Enquiry: Look up ENR+CD organoids (ISC to Paneth cell differentiation) data: Z.LYZ.NS (standard z score) of C[C@H](Oc1cc(-c2cnn(C3CCNCC3)c2)cnc1N)c1c(Cl)ccc(F)c1Cl [(S)-crizotinib] , then report it.
Return: −0.588

Enquiry: Look up ENR+CD organoids (ISC to Paneth cell differentiation) data: Z.LYZ.NS (standard z score) of CCOC(=O)N1c2ccc(C(F)(F)F)cc2[C@@H](N(Cc2cc(C(F)(F)F)cc(C(F)(F)F)c2)C(=O)OC)C[C@H]1CC [Torcetrapib] , then report it.
Return: −0.108

Enquiry: Look up ENR+CD organoids (ISC to Paneth cell differentiation) data: Z.LYZ.NS (standard z score) of CCC(=O)Nc1cccc(Oc2nc(Nc3ccc(N4CCN(C)CC4)cc3OC)ncc2Cl)c1 [WZ4003] , then report it.
Return: −0.850

---

test system: ENR+CD organoids (ISC to Paneth cell differentiation); test: Primary screen: CCh-stimulated lysozyme secretion LYZ.S, 2.5-D 384-well ENR+CD organoid differentiation; format: cell-based, mouse; conditions: primary screen, dose 2.00 uM
Structures can show the parent of a compound that is named as a salt.
Items are presented alongside their recorded Dose.FC.LYZ.S (log2 fold change).
Output: the number by itself.

Here is how some molecules turned out for Dose.FC.LYZ.S (log2 fold change).
COc1cc(-n2c(=S)[nH]c3ccccc3c2=O)c(Cl)cc1Cl
−0.048
CCOC(=O)[C@H](CCc1ccccc1)N[C@@H](C)C(=O)N1C(=O)N(C)C[C@H]1C(=O)O [Imidapril HCl]
−0.035
CCOC(=O)CCNc1cc(N2CCc3ccccc3CC2)nc(-c2ccccn2)n1.Cl [GSK J4 HCl]
0.041
CCc1c2c(nc3ccc(OC(=O)N4CCC(N5CCCCC5)CC4)cc13)-c1cc3c(c(=O)n1C2)COC(=O)[C@]3(O)CC [Irinotecan HCl Trihydrate]
−0.293
Cc1ccc(NC(=O)c2ccc(CN3CCN(C)CC3)cc2)cc1Nc1nccc(-c2cccnc2)n1 [Imatinib (STI571)]
−0.001
CC[C@H](C)C(=O)O[C@H]1C[C@@H](C)C=C2C=C[C@H](C)[C@H](CC[C@@H]3C[C@@H](O)CC(=O)O3)[C@H]21
−0.398

Could you now consider this next molecule?
Enquiry: # return recorded Dose.FC.LYZ.S (log2 fold change) for input N#Cc1ccc(C(c2ccc(C#N)cc2)n2cncn2)cc1
Return: 0.006

---

Items are presented alongside their recorded Z.LYZ.NS.
system: ENR+CD organoids (ISC to Paneth cell differentiation); test: Primary screen: basal (non-stimulated) lysozyme secretion LYZ.NS, 2.5-D 384-well ENR+CD organoid differentiation; assay type: cell-based, mouse; conditions: primary screen, dose 0.08 uM, standard z score
Output: the number by itself.

Enquiry: # return recorded Z.LYZ.NS for input O=C(Nc1ccncc1)c1cc([N+](=O)[O-])ccc1Cl
Return: 0.084

Enquiry: # return recorded Z.LYZ.NS for input COc1cc(OC)c(/C=C/S(=O)(=O)Cc2ccc(OC)c(NCC(=O)O)c2)c(OC)c1
Return: −2.105

Enquiry: # return recorded Z.LYZ.NS for input COc1ccc(-c2cnc3c(-c4cccc5ncccc45)cnn3c2)cc1
Return: 1.079

---

system: ENR+CD organoids (ISC to Paneth cell differentiation); test: Primary screen: basal (non-stimulated) lysozyme secretion LYZ.NS, 2.5-D 384-well ENR+CD organoid differentiation; assay type: cell-based, mouse; conditions: primary screen, dose 2.00 uM
Mark each entry Met if its Dose.FC.LYZ.NS sits below -0.003 log2 fold change, and Not met for all others.

Completed entries (count: 10):
CN(C)CCCCC(=O)Nc1ccc(NC(=S)NC(=O)c2ccc(C(C)(C)C)cc2)cc1
Met
NC(=O)C1CCCc2c1[nH]c1ccc(Cl)cc21 (stereo not drawn) [EX 527 (Selisistat)]
Not met
CC(C)n1c(/C=C/C(O)CC(O)CC(=O)O)c(-c2ccc(F)cc2)c2ccccc21 (stereo not drawn) [Fluvastatin Sodium]
Met
CC1C(=O)OC2C(O)C34C5CC(C(C)(C)C)C36C(OC(=O)C6O)OC4(C(=O)O5)C12O (stereo not drawn) [Ginkgolide B]
Not met
O=C(O[C@H]1C[C@H]2CC[C@@H](C1)[N+]21CCCC1)C(O)(c1ccccc1)c1ccccc1 [Trospium chloride]
Not met
Cn1cc(C2=C(c3cn(C4CCN(Cc5ccccn5)CC4)c4ccccc34)C(=O)NC2=O)c2ccccc21
Not met
CCc1c(C(=O)C(N)=O)c2c(OCC(=O)O)cccc2n1Cc1ccccc1 [Varespladib (LY315920), Varespladib, reference compound]
Not met
CC(=O)Nc1nc2c(Oc3cc(-c4ccc(C(F)(F)F)cc4)ncn3)cccc2s1
Met
COc1cc2c(Nc3ccc(NC(=O)c4ccccc4)cc3)ncnc2cc1OCCCN1CCOCC1
Not met
COc1ccc2cc(-c3nc(-c4ccc([S+](C)[O-])cc4)[nH]c3-c3ccncc3)ccc2c1 (stereo not drawn)
Not met

Enquiry: Does the reported Dose.FC.LYZ.NS of C[C@@H]1COCCN1c1cc(C2(S(C)(=O)=O)CC2)nc(-c2cccc3[nH]ccc23)n1 stay below -0.003 log2 fold change?
Return: Met

Enquiry: Does the reported Dose.FC.LYZ.NS of C=CC(=O)Nc1cccc(Nc2nc(Nc3ccc(OCCOC)cc3)ncc2F)c1 stay below -0.003 log2 fold change?
Return: Met

Enquiry: Does the reported Dose.FC.LYZ.NS of N#Cc1c(O)c2c(-c3ccc(-c4ccccc4O)cc3)csc2[nH]c1=O stay below -0.003 log2 fold change?
Return: Not met

Enquiry: Does the reported Dose.FC.LYZ.NS of CCOC(=O)N1c2ccc(C(F)(F)F)cc2[C@@H](N(Cc2cc(C(F)(F)F)cc(C(F)(F)F)c2)C(=O)OC)C[C@H]1CC stay below -0.003 log2 fold change?
Return: Met

Enquiry: Does the reported Dose.FC.LYZ.NS of COc1ccc2cccc(CCNC(C)=O)c2c1 stay below -0.003 log2 fold change?
Return: Not met

Enquiry: Does the reported Dose.FC.LYZ.NS of O=c1[nH]c2ccc(Cl)cc2c(N[C@@H]2CN3CCC2CC3)c1-c1nc2ccccc2[nH]1 stay below -0.003 log2 fold change?
Return: Met

Enquiry: Does the reported Dose.FC.LYZ.NS of Cc1cc([C@@H](C)Nc2ccccc2C(=O)O)c2nc(N3CCOCC3)cc(=O)n2c1 stay below -0.003 log2 fold change?
Return: Met

Enquiry: Does the reported Dose.FC.LYZ.NS of Cc1nc(C(=O)NCC(=O)O)c(O)c2ccc(Oc3ccccc3)cc12 stay below -0.003 log2 fold change?
Return: Not met

Enquiry: Does the reported Dose.FC.LYZ.NS of CCCCCCCCc1ccc(CCC(N)(CO)CO)cc1.Cl [Fingolimod (FTY720) HCl] stay below -0.003 log2 fold change?
Return: Not met

Enquiry: Does the reported Dose.FC.LYZ.NS of Cn1c(=O)cc(N2CCC[C@@H](N)C2)n(Cc2cc(F)ccc2C#N)c1=O stay below -0.003 log2 fold change?
Return: Met

Enquiry: Does the reported Dose.FC.LYZ.NS of CCNC(=O)c1noc(-c2cc(C(C)C)c(O)cc2O)c1-c1ccc(CN2CCOCC2)cc1 stay below -0.003 log2 fold change?
Return: Met

---

test system: ENR+CD organoids; test: Primary screen: ATP (CellTiter-Glo 3D, CTG) cell number/viability, 2.5-D 384-well ENR+CD organoids; settings: primary screen, dose 10.00 uM;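 note: compounds given at plating and again on day 3 over a 6-day differentiation from ENR+CV stem-cell-enriched precursors, ATP measured on day 6, plate median as control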
Mark each entry 1 if its Dose.FC.CTG sits below 0.09 log2 fold change, and -1 for all others.

Enquiry: Does the reported Dose.FC.CTG of COc1ccccc1Oc1c(NS(=O)(=O)c2ccc(C(C)(C)C)cc2)nc(-c2ncccn2)nc1OCCO [Bosentan Hydrate] stay below 0.09 log2 fold change?
Return: 1

Enquiry: Does the reported Dose.FC.CTG of COc1ccc2nc([S@@+]([O-])Cc3ncc(C)c(OC)c3C)[nH]c2c1 [Esomeprazole Sodium] stay below 0.09 log2 fold change?
Return: -1

Enquiry: Does the reported Dose.FC.CTG of COc1cc(OC2CCN(C)CC2)ccc1Nc1ncc2c(n1)n(C1CCCC1)c(=O)n2C [AZ 3146] stay below 0.09 log2 fold change?
Return: 1
